# Tested on: Clavispora lusitaniae
# PROTOCOL TEXT: Antifungal activity against Clavispora lusitaniae isolated from candidemia patient by AFST-EUCAST microdilution method
# Type: functional
Numbered stars: 1 amine (or outer) side, 2 acyl side, 3 side chain; on linkers, the order of the positions; unused ones are H or OH. Bridge positions count the residues as written; N and C are the ends. Square brackets hold non-standard residues; d marks the D form. Peptide text beside a SMILES is read from it. * marks the point of attachment. hTyr(3S-OH,4S-OH,3'-OSO3H) = N[C@H](C(=O)O)[C@H](O)[C@@H](O)c1ccc(O)c(OS(=O)(=O)O)c1; pTerphenylCO(4''-OnC5H11) = CCCCCOc1ccc(-c2ccc(-c3ccc(C(=O)*)cc3)cc2)cc1; Orn(4R-OH,5R-OH) = O=C([C@H](C[C@@H](O)[C@@H](O)N[*:3])N[*:1])[*:2]; hTyr(3S-OH,4S-OH) = N[C@H](C(=O)O)[C@H](O)[C@@H](O)c1ccc(O)cc1; Pro(3S-OH,4S-Me) = C[C@H]1CN[C@H](C(=O)O)[C@H]1O; X1 = CCCCCOc1ccc(-c2cc(-c3ccc(C(=O)*)cc3)no2)cc1; Gln(3R-OH) = NC(=O)C[C@@H](O)[C@H](N)C(=O)O; Hyp = O=C(O)[C@@H]1C[C@@H](O)CN1
MEASURED METRIC: MIC90 (µg/mL)
Numeric only. Scale: µg/mL

Check out these entries, answers already filled in.
[
  {
    "COMPOUND": "CC[C@@H]([C@H](C)O)n1ncn(-c2ccc(N3CCN(c4ccc(OC[C@@H]5CO[C@@](Cn6cncn6)(c6ccc(F)cc6F)C5)cc4)CC3)cc2)c1=O [POSACONAZOLE]",
    "SYSTEM TESTED": "Clavispora lusitaniae",
    "RESULT UNIT": "µg/mL",
    "MIC90": 0.03
  },
  {
    "COMPOUND": "CC[C@H](C)C[C@H](C)CCCCCCCCC(=O)N[C@H]1C[C@@H](O)[C@@H](NCCN)NC(=O)[C@@H]2[C@@H](O)CCN2C(=O)[C@H]([C@H](O)CCN)NC(=O)[C@H]([C@H](O)[C@@H](O)c2ccc(O)cc2)NC(=O)[C@@H]2C[C@@H](O)CN2C(=O)[C@H]([C@@H](C)O)NC1=O [CASPOFUNGIN]",
    "SYSTEM TESTED": "Clavispora lusitaniae",
    "RESULT UNIT": "µg/mL",
    "MIC90": 1
  },
  {
    "COMPOUND": "C[C@@H]1[C@H](O)[C@@H](C)/C=C/C=C/C=C/C=C/C=C/C=C/C=C/[C@H](O[C@@H]2O[C@H](C)[C@@H](O)[C@H](N)[C@@H]2O)C[C@@H]2O[C@](O)(C[C@@H](O)C[C@@H](O)[C@H](O)CC[C@@H](O)C[C@@H](O)CC(=O)O[C@H]1C)C[C@H](O)[C@H]2C(=O)O [AMPHOTERICIN B]",
    "SYSTEM TESTED": "Clavispora lusitaniae",
    "RESULT UNIT": "µg/mL",
    "MIC90": 4
  },
  {
    "COMPOUND": "CCCCCOc1ccc(-c2ccc(-c3ccc(C(=O)N[C@H]4C[C@@H](O)[C@@H](O)NC(=O)[C@@H]5[C@@H](O)[C@@H](C)CN5C(=O)[C@H]([C@@H](C)O)NC(=O)[C@H]([C@H](O)[C@@H](O)c5ccc(O)cc5)NC(=O)[C@@H]5C[C@@H](O)CN5C(=O)[C@H]([C@@H](C)O)NC4=O)cc3)cc2)cc1 [ANIDULAFUNGIN] ({pTerphenylCO(4''-OnC5H11)}-[Orn(4R-OH,5R-OH)]T[Hyp][hTyr(3S-OH,4S-OH)]T[Pro(3S-OH,4S-Me)]; lactam 1-C)",
    "SYSTEM TESTED": "Clavispora lusitaniae",
    "RESULT UNIT": "µg/mL",
    "MIC90": 1
  },
  {
    "COMPOUND": "CCCCCOc1ccc(-c2cc(-c3ccc(C(=O)N[C@H]4C[C@@H](O)[C@@H](O)NC(=O)[C@@H]5[C@@H](O)[C@@H](C)CN5C(=O)[C@H]([C@H](O)CC(N)=O)NC(=O)[C@H]([C@H](O)[C@@H](O)c5ccc(O)c(OS(=O)(=O)O)c5)NC(=O)[C@@H]5C[C@@H](O)CN5C(=O)[C@H]([C@@H](C)O)NC4=O)cc3)no2)cc1 [MICAFUNGIN] (X1-[Orn(4R-OH,5R-OH)]T[Hyp][hTyr(3S-OH,4S-OH,3'-OSO3H)][Gln(3R-OH)][Pro(3S-OH,4S-Me)]; lactam 1-C)",
    "SYSTEM TESTED": "Clavispora lusitaniae",
    "RESULT UNIT": "µg/mL",
    "MIC90": 0.12
  }
]

# lookup: MIC90 of OC(Cn1cncn1)(Cn1cncn1)c1ccc(F)cc1F [FLUCONAZOLE]
4

# lookup: MIC90 of Nc1nc(=O)[nH]cc1F [FLUCYTOSINE]
2

# lookup: MIC90 of C[C@@H](c1ncncc1F)[C@](O)(Cn1cncn1)c1ccc(F)cc1F [VORICONAZOLE]
0.5

# lookup: MIC90 of CCC(C)n1ncn(-c2ccc(N3CCN(c4ccc(OCC5COC(Cn6cncn6)(c6ccc(Cl)cc6Cl)O5)cc4)CC3)cc2)c1=O (centres undefined) [ITRACONAZOLE]
0.25
